# Test system: P. aeruginosa
Non-standard residues stand in square brackets, D forms with d. Residues, ends and D or L forms follow the SMILES beside them. Nle = CCCC[C@H](N)C(=O)O; Dab = NCC[C@H](N)C(=O)O
measurement_name: Average MIC (µg/mL)
Enter your answer as a number in µg/mL; do not include the unit.

Q. I am curious: what Average MIC value has been reported for CCCC[C@@H]1NC(=O)[C@H](Cc2c[nH]c3ccccc23)NC(=O)[C@H]([C@@H](C)O)NC(=O)[C@@H]2CCCN2C(=O)[C@H]2CCCN2C(=O)[C@H](CCN)NC(=O)[C@H](C)NC(=O)[C@H](CCN)NC(=O)[C@H](CCN)NC(=O)[C@H](Cc2c[nH]c3ccccc23)NC(=O)[C@H](CCN)NC(=O)[C@H](CCN)NC(=O)[C@H](CCCCN)NC(=O)[C@H](CCN)NC1=O [Example 31] (cyclo(TW[Nle][Dab]K[Dab][Dab]W[Dab][Dab]A[Dab][dP]P)) ?
A. 0.20

###

# Tested on: Pseudomonas aeruginosa IMP 1 Livermore 3140
# Format: cell-based
# condition_summary: IMP 1 Livermore 3140
Non-standard residues stand in square brackets, D forms with d. Residues, ends and D or L forms follow the SMILES beside them. Tle = CC(C)(C)[C@H](N)C(=O)O; dDab = NCC[C@@H](N)C(=O)O; Orn = NCCC[C@H](N)C(=O)O; Dab = NCC[C@H](N)C(=O)O
measurement_name: MIC P. aeruginosa IMP1 Livermore 3140 (µg/mL)
Numbers only here, please. The scale is µg/mL.

Example entries begin here.
compound	recorded_measurement
CC[C@H](C)[C@@H]1NC(=O)[C@H](Cc2c[nH]c3ccccc23)NC(=O)[C@H]([C@@H](C)O)NC(=O)[C@@H]2CCCN2C(=O)[C@H]2CCCN2C(=O)[C@H](CCN)NC(=O)[C@H](C(C)C)NC(=O)[C@H](CCN)NC(=O)[C@H](CCN)NC(=O)[C@H](Cc2c[nH]c3ccccc23)NC(=O)[C@H](CCN)NC(=O)[C@H](CCN)NC(=O)[C@H](CCCCN)NC(=O)[C@H](CCC(N)=O)NC1=O [Example 30] (cyclo(TWIQK[Dab][Dab]W[Dab][Dab]V[Dab][dP]P))	2.00
CC[C@H](C)[C@@H]1NC(=O)[C@H](Cc2ccc(O)cc2)NC(=O)[C@H](CC(=O)O)NC(=O)[C@@H]2CCCN2C(=O)[C@H]2CCCN2C(=O)[C@H](CCN)NC(=O)[C@H](C)NC(=O)[C@H](CCN)NC(=O)[C@H](CCN)NC(=O)[C@H](Cc2c[nH]c3ccccc23)NC(=O)[C@H](CCN)NC(=O)[C@@H](CCN)NC(=O)[C@H](CCCN)NC(=O)[C@H](CCN)NC1=O [Example 43] (cyclo(DYI[Dab][Orn][dDab][Dab]W[Dab][Dab]A[Dab][dP]P))	2.00

Here's the next entry for you.
Q. Give its MIC P. aeruginosa IMP1 Livermore 3140 value. Item: CC[C@H](C)[C@@H]1NC(=O)[C@H](Cc2c[nH]c3ccccc23)NC(=O)[C@H]([C@@H](C)O)NC(=O)[C@@H]2CCCN2C(=O)[C@H]2CCCN2C(=O)[C@H](CCN)NC(=O)[C@H](C(C)(C)C)NC(=O)[C@H](CCN)NC(=O)[C@H](CCN)NC(=O)[C@H](Cc2c[nH]c3ccccc23)NC(=O)[C@H](CCN)NC(=O)[C@H](CCN)NC(=O)[C@H](CCCCN)NC(=O)[C@H](CCN)NC1=O [Example 36] (cyclo(TWI[Dab]K[Dab][Dab]W[Dab][Dab][Tle][Dab][dP]P))
A. 0.43
